KIDNEY_R: recorded values
Species: Rattus norvegicus
Assay: Open TG-GATES - Regimen: Single
Type: toxicity, organism-based, Sprague-Dawley
Parameters: regimen Single, gender Male, age 6 weeks
Conditions: in vivo, po, 0 mg/kg, 3 h, tissue Kidney, route gavage, dose level Control
Respond with the bare value in g.

Look over these answered cases.
[
  {
    "molecule": "CC(CN1c2ccccc2Sc2ccccc21)N(C)C (stereo not drawn)",
    "KIDNEY_R (g)": 1
  },
  {
    "molecule": "Cc1cccc(Nc2ccccc2C(=O)O)c1C",
    "KIDNEY_R (g)": 1
  }
]

Could you please provide reported KIDNEY_R for `CCOC(=O)[C@H](CCc1ccccc1)N[C@@H](C)C(=O)N1CCC[C@H]1C(=O)O` ? Thanks!
1

====

Species: Rattus norvegicus
Assay: Open TG-GATES - Regimen: Single
Assay type: toxicity, organism-based, Sprague-Dawley
Design: regimen Single, gender Male, age 6 weeks
Conditions: in vivo, po, 0 mg/kg, 24 h, tissue Plasma, route gavage, dose level Control
AST: recorded values
Respond with the bare value in IU/L.

Look over these answered cases.
[
  {
    "compound": "CC(=O)Nc1nnc(S(N)(=O)=O)s1 [ACETAZOLAMIDE]",
    "AST, IU/L": 80.8
  },
  {
    "compound": "Cc1cccc(Nc2ccccc2C(=O)O)c1C [MEFENAMIC ACID]",
    "AST, IU/L": 66
  }
]

API: the following record is the query input.
Could you please provide reported AST for `CCOC(=O)[C@H](CCc1ccccc1)N[C@@H](C)C(=O)N1CCC[C@H]1C(=O)O` ? Thanks!
62.6

====

IP: recorded values
Organism: Rattus norvegicus
Test: Open TG-GATES - Regimen: Single
Assay type: toxicity, organism-based, Sprague-Dawley
Parameters: regimen Single, gender Male, age 6 weeks
Details: in vivo, po, 0 mg/kg, 6 h, tissue Plasma, route gavage, dose level Control
Respond with the bare value in mg/dL.

Look over these answered cases.
[
  {
    "compound": "CC(=O)Nc1nnc(S(N)(=O)=O)s1 [ACETAZOLAMIDE]",
    "reported-measurement": 9.4
  },
  {
    "compound": "C#C[C@]1(O)CC[C@H]2[C@@H]3CCC4=Cc5oncc5C[C@]4(C)[C@H]3CC[C@@]21C",
    "reported-measurement": 9
  },
  {
    "compound": "Clc1c(Cl)c(Cl)c(Cl)c(Cl)c1Cl",
    "reported-measurement": 9.4
  },
  {
    "compound": "CN1C(C(=O)Nc2ccccn2)=C(O)c2sc(Cl)cc2S1(=O)=O",
    "reported-measurement": 9.1
  },
  {
    "compound": "Cc1cccc(Nc2ccccc2C(=O)O)c1C",
    "reported-measurement": 8.9
  },
  {
    "compound": "CN(C)[C@@H]1C(O)=C(C(N)=O)C(=O)[C@@]2(O)C(O)=C3C(=O)c4c(O)cccc4[C@@](C)(O)[C@H]3C[C@@H]12",
    "reported-measurement": 10.5
  }
]

API: the following record is the query input.
Could you please provide reported IP for COc1cc([C@@H]2c3cc4c(cc3[C@@H](O[C@@H]3O[C@@H]5CO[C@@H](C)O[C@H]5[C@H](O)[C@H]3O)[C@H]3COC(=O)[C@H]23)OCO4)cc(OC)c1O [ETOPOSIDE] ? Thanks!
10.5

====

Organism: Rattus norvegicus
Assay: Open TG-GATES - Regimen: Single
Assay type: toxicity, organism-based, Sprague-Dawley
Design: regimen Single, gender Male, age 6 weeks
Details: in vivo, po, 0 mg/kg, 3 h, tissue Blood, route gavage, dose level Control
readout-name: Mono (%)
Respond with the bare value in %.

Look over these answered cases.
[
  {
    "compound": "CN(C)[C@@H]1C(O)=C(C(N)=O)C(=O)[C@@]2(O)C(O)=C3C(=O)c4c(O)cccc4[C@@](C)(O)[C@H]3C[C@@H]12 [TETRACYCLINE]",
    "Mono [%]": 8.6
  },
  {
    "compound": "CN1C(C(=O)Nc2ccccn2)=C(O)c2sc(Cl)cc2S1(=O)=O [LORNOXICAM]",
    "Mono [%]": 2.8
  },
  {
    "compound": "COc1cc([C@@H]2c3cc4c(cc3[C@@H](O[C@@H]3O[C@@H]5CO[C@@H](C)O[C@H]5[C@H](O)[C@H]3O)[C@H]3COC(=O)[C@H]23)OCO4)cc(OC)c1O [ETOPOSIDE]",
    "Mono [%]": 8
  },
  {
    "compound": "CC(CN1c2ccccc2Sc2ccccc21)N(C)C (stereo unspecified) [PROMETHAZINE]",
    "Mono [%]": 2.4
  },
  {
    "compound": "Clc1c(Cl)c(Cl)c(Cl)c(Cl)c1Cl [PERCHLOROBENZENE]",
    "Mono [%]": 3.2
  }
]

API: the following record is the query input.
Could you please provide reported Mono for C#C[C@]1(O)CC[C@H]2[C@@H]3CCC4=Cc5oncc5C[C@]4(C)[C@H]3CC[C@@]21C [DANAZOL] ? Thanks!
2.4

====

Neu: recorded values
Organism: Rattus norvegicus
Experiment: Open TG-GATES - Regimen: Single
Type: toxicity, organism-based, Sprague-Dawley
Design: regimen Single, gender Male, age 6 weeks
Conditions: in vivo, po, 0 mg/kg, 24 h, tissue Blood, route gavage, dose level Control
Respond with the bare value in %.

Look over these answered cases.
[
  {
    "molecule": "CCOC(=O)[C@H](CCc1ccccc1)N[C@@H](C)C(=O)N1CCC[C@H]1C(=O)O",
    "readout-name": "Neu",
    "units-symbol": "%",
    "reported-measurement": 19
  },
  {
    "molecule": "O=[N+]([O-])c1ccc2c(c1)Cc1ccccc1-2",
    "readout-name": "Neu",
    "units-symbol": "%",
    "reported-measurement": 16.8
  },
  {
    "molecule": "CN1C(C(=O)Nc2ccccn2)=C(O)c2sc(Cl)cc2S1(=O)=O",
    "readout-name": "Neu",
    "units-symbol": "%",
    "reported-measurement": 15.2
  },
  {
    "molecule": "Clc1c(Cl)c(Cl)c(Cl)c(Cl)c1Cl",
    "readout-name": "Neu",
    "units-symbol": "%",
    "reported-measurement": 14.8
  },
  {
    "molecule": "COc1cc([C@@H]2c3cc4c(cc3[C@@H](O[C@@H]3O[C@@H]5CO[C@@H](C)O[C@H]5[C@H](O)[C@H]3O)[C@H]3COC(=O)[C@H]23)OCO4)cc(OC)c1O [ETOPOSIDE]",
    "readout-name": "Neu",
    "units-symbol": "%",
    "reported-measurement": 14.6
  }
]

Could you please provide reported Neu for CC(CN1c2ccccc2Sc2ccccc21)N(C)C (stereo unspecified) ? Thanks!
14.8

====

Species on record: Rattus norvegicus
Assay: Open TG-GATES - Regimen: Single
Format: toxicity, organism-based, Sprague-Dawley
Parameters: regimen Single, gender Male, age 6 weeks
Conditions: in vivo, po, 0 mg/kg, 9 h, tissue Plasma, route gavage, dose level Control
readout-name: CRE (mg/dL)
Respond with the bare value in mg/dL.

[
  {
    "smiles-entry": "Cc1cccc(Nc2ccccc2C(=O)O)c1C",
    "reported-measurement": 0.3
  },
  {
    "smiles-entry": "Clc1c(Cl)c(Cl)c(Cl)c(Cl)c1Cl",
    "reported-measurement": 0.3
  }
]

Could you please provide reported CRE for `CN1C(C(=O)Nc2ccccn2)=C(O)c2sc(Cl)cc2S1(=O)=O` ? Thanks!
0.3

====

Organism: Rattus norvegicus
Test: Open TG-GATES - Regimen: Single
Assay type: toxicity, organism-based, Sprague-Dawley
Parameters: regimen Single, gender Male, age 6 weeks
Conditions: in vivo, po, 0 mg/kg, 6 h, tissue Blood, route gavage, dose level Control
readout-name: Lym (%)
Respond with the bare value in %.

[
  {
    "molecule": "CC(CN1c2ccccc2Sc2ccccc21)N(C)C (stereo not given)",
    "units-symbol": "%",
    "Lym": 82.6
  },
  {
    "molecule": "CCOC(=O)[C@H](CCc1ccccc1)N[C@@H](C)C(=O)N1CCC[C@H]1C(=O)O",
    "units-symbol": "%",
    "Lym": 76.2
  },
  {
    "molecule": "CN1C(C(=O)Nc2ccccn2)=C(O)c2sc(Cl)cc2S1(=O)=O",
    "units-symbol": "%",
    "Lym": 81.2
  },
  {
    "molecule": "COc1cc([C@@H]2c3cc4c(cc3[C@@H](O[C@@H]3O[C@@H]5CO[C@@H](C)O[C@H]5[C@H](O)[C@H]3O)[C@H]3COC(=O)[C@H]23)OCO4)cc(OC)c1O [ETOPOSIDE]",
    "units-symbol": "%",
    "Lym": 82.4
  }
]

API: the following record is the query input.
Could you please provide reported Lym for `C#C[C@]1(O)CC[C@H]2[C@@H]3CCC4=Cc5oncc5C[C@]4(C)[C@H]3CC[C@@]21C` ? Thanks!
81.2
